# experimental_parameters: buffer; pH 7.4; 200.0 µM
observation_type: solubility kinetic (µg/mL)
Numeric answer only, unit µg/mL assumed.

// field: solubility kinetic; key: O=C(c1cccc(NS(=O)(=O)c2ccccc2)c1)N1CCCC1 ; value = 43.9

// field: solubility kinetic; key: O=S(=O)(c1cnc[nH]1)N1CCN(c2ccc(F)cc2)CC1 ; value = 5.8

// field: solubility kinetic; key: Cc1cccc(-c2noc(-c3ccccc3C(=O)NCc3ccco3)n2)c1 ; value = 8.9

// field: solubility kinetic; key: Fc1cccc(NCCc2c[nH]c3ccccc23)n1 ; value = 35.6

// field: solubility kinetic; key: O=C(CCC(=O)N1CCCC1)Nc1ccc(Cl)c(Cl)c1 ; value = 5.6

// field: solubility kinetic; key: CC(OC(=O)c1ccc([N+](=O)[O-])cc1)C(=O)NCC1CCCCC1 (stereo not drawn) ; value = 5.6

// field: solubility kinetic; key: CCOc1ccc(S(=O)(=O)Nc2ccc(C(=O)NCC(c3ccc(OC)cc3)N3CCOCC3)cc2)cc1 (stereo not drawn) ; value = 37.9

// field: solubility kinetic; key: O=c1[nH]c(=S)[nH]c2c1CN(Cc1ccc(F)cc1)CC2 ; value = 28.6

// field: solubility kinetic; key: CC1SC(=S)N(c2ccc(N(C)C)cc2)C1=O (stereo not drawn) ; value = 5.7

// field: solubility kinetic; key: COc1ccc(NC(=O)COC(=O)CCC2CCCC2)c(OC)c1 ; value = 17.4

// field: solubility kinetic; key: S=C(Nc1cccc(Cl)c1)N1CCN(c2ccccn2)CC1 ; value = 0.5

// field: solubility kinetic; key: CCCCN(Cc1cc2cccc(C)c2[nH]c1=O)S(C)(=O)=O ; value = 41

// field: solubility kinetic; key: O=C(Nc1ccc(Br)cn1)c1cccc2ccccc12 ; value = 0.5

// field: solubility kinetic; key: CCOc1ncccc1C(=O)Nc1ccc(C)cn1 ; value = 31.8

// field: solubility kinetic; key: CC1(C)Cc2ccccc2-c2[nH]c(=S)[nH]c(=O)c21 ; value = 30.1

// field: solubility kinetic; key: Nc1c(C(=O)c2ccco2)oc2ccccc12 ; value = 25.8

// field: solubility kinetic; key: CC1(C)CC2CC(C)(CN2S(=O)(=O)c2ccccc2[N+](=O)[O-])C1 (stereo not drawn) ; value = 2.4

// field: solubility kinetic; key: CC(=O)Nc1ccc(Nc2cc(C)nc3ccccc23)cc1 ; value = 40.2

// field: solubility kinetic; key: O=C(NC12CC3CC(CC(C3)C1)C2)c1cccc(OC(F)F)c1 ; value = 16.7

// field: solubility kinetic; key: O=C(CCn1c(=O)oc2ccccc21)NCCCN1CCOCC1 ; value = 43.2

// field: solubility kinetic; key: Cc1cccc(NC(=O)C(C)N2CC=C(c3ccccc3)CC2)c1 (stereo not drawn) ; value = 2.9

// field: solubility kinetic; key: CN(C)Cc1c(O)ccc2c1O/C(=C\C=C\c1ccccc1)C2=O ; value = 46.8

// field: solubility kinetic; key: Cc1nonc1OCCN1CCN(c2ccc([N+](=O)[O-])cc2)CC1 ; value = 42.6

// field: solubility kinetic; key: COc1ccc(OC)c(/C=C/C(=O)OCC(=O)NCc2ccccc2)c1 ; value = 15.1

// field: solubility kinetic; key: Cc1ccc(C2C(=O)NC(=O)NC2=O)cc1 ; value = 27.7

// field: solubility kinetic; key: Cc1ccc(CNC(=O)c2c(-c3ccccc3Cl)noc2C)cc1 ; value = 42.6
